System: Plasmodium falciparum
Assay Overview: Antimalarial activity against ring stage artemisinin-resistant Plasmodium falciparum F32-ART5 assessed as time taken for recrudescence by measuring parasitemia at 7 uM after 48 hrs
Format: functional
Kindly supply the reported Time values for the records listed here.
Answer in days, number only, no unit symbol.

Quick one: Time for Cc1[nH]c(C)c(-c2ccc(Oc3ccc(OC(F)(F)F)cc3)cc2)c(=O)c1Cl ?
2

Quick one: Time for Cc1nc(C)c(-c2ccc(Oc3ccc(OC(F)(F)F)cc3)cc2)c(OC(=O)CCCCCCC(=O)Oc2cc(Cl)ccc2Oc2ccc(Cl)cc2Cl)c1Cl ?
3

Quick one: Time for O=C1C(O)=C([C@H]2CC[C@H](c3ccc(Cl)cc3)CC2)C(=O)c2ccccc21 ?
21

Quick one: Time for Oc1cc(Cl)ccc1Oc1ccc(Cl)cc1Cl ?
5

Quick one: Time for O=C(CCCCCCC(=O)Oc1cc(Cl)ccc1Oc1ccc(Cl)cc1Cl)OC1=C([C@H]2CC[C@H](c3ccc(Cl)cc3)CC2)C(=O)c2ccccc2C1=O ?
9

====

Assay Overview: Selective index, ratio of CC50 for African green monkey Vero cells to IC50 for plasmodium falciparum
Recorded Metric: Ratio CC50/IC50
Kindly provide the number alone.

Quick one: Ratio CC50/IC50 for Cc1[nH]c(C)c(-c2ccc(Oc3ccc(OC(F)(F)F)cc3)cc2)c(=O)c1Cl ?
190

Quick one: Ratio CC50/IC50 for O[C@@H](c1cc(C(F)(F)F)nc2c(C(F)(F)F)cccc12)[C@H]1CCCCN1 [(S,R)-MEFLOQUINE] ?
241

Quick one: Ratio CC50/IC50 for O=C1C(O)=C([C@H]2CC[C@H](c3ccc(Cl)cc3)CC2)C(=O)c2ccccc21 ?
257

Quick one: Ratio CC50/IC50 for Cl.O=C(CCC(=O)O[C@H](c1cc(C(F)(F)F)nc2c(C(F)(F)F)cccc12)[C@@H]1CCCCN1)OC1=C([C@H]2CC[C@H](c3ccc(Cl)cc3)CC2)C(=O)c2ccccc2C1=O ?
6660

Quick one: Ratio CC50/IC50 for Oc1cc(Cl)ccc1Oc1ccc(Cl)cc1Cl ?
5

Quick one: Ratio CC50/IC50 for Cl.O=C(CCCC(=O)O[C@H](c1cc(C(F)(F)F)nc2c(C(F)(F)F)cccc12)[C@@H]1CCCCN1)OC1=C([C@H]2CC[C@H](c3ccc(Cl)cc3)CC2)C(=O)c2ccccc2C1=O ?
4545

Quick one: Ratio CC50/IC50 for O=C(CCCCCCC(=O)Oc1cc(Cl)ccc1Oc1ccc(Cl)cc1Cl)OC1=C([C@H]2CC[C@H](c3ccc(Cl)cc3)CC2)C(=O)c2ccccc2C1=O ?
10000

====

Assay Overview: Cytotoxicity against African green monkey Vero cells assessed as inhibition of cell proliferation
Assay type: cell-based
Particulars: chlorocebus sabaeus
Recorded Metric: CC50 (µM)
Answer in µM, number only, no unit symbol.

Quick one: CC50 for Oc1cc(Cl)ccc1Oc1ccc(Cl)cc1Cl [TRICLOSAN] ?
25

Quick one: CC50 for O[C@@H](c1cc(C(F)(F)F)nc2c(C(F)(F)F)cccc12)[C@H]1CCCCN1 [(S,R)-MEFLOQUINE] ?
21

Quick one: CC50 for Cl.O=C(CCC(=O)O[C@H](c1cc(C(F)(F)F)nc2c(C(F)(F)F)cccc12)[C@@H]1CCCCN1)OC1=C([C@H]2CC[C@H](c3ccc(Cl)cc3)CC2)C(=O)c2ccccc2C1=O ?
4

Quick one: CC50 for Cl.O=C(CCCC(=O)O[C@H](c1cc(C(F)(F)F)nc2c(C(F)(F)F)cccc12)[C@@H]1CCCCN1)OC1=C([C@H]2CC[C@H](c3ccc(Cl)cc3)CC2)C(=O)c2ccccc2C1=O ?
5

Quick one: CC50 for Cc1[nH]c(C)c(-c2ccc(Oc3ccc(OC(F)(F)F)cc3)cc2)c(=O)c1Cl ?
8

Quick one: CC50 for O=C1C(O)=C([C@H]2CC[C@H](c3ccc(Cl)cc3)CC2)C(=O)c2ccccc21 [ATOVAQUONE] ?
0.5

Quick one: CC50 for O=C(CCCCCCC(=O)Oc1cc(Cl)ccc1Oc1ccc(Cl)cc1Cl)OC1=C([C@H]2CC[C@H](c3ccc(Cl)cc3)CC2)C(=O)c2ccccc2C1=O ?
6
